# Test system: NRF2
# TEST_SUMMARY: NRF2 +/-GSH activation assay (DiscoverX PathHunter NRF2 translocation kit, U2OS cells)
# Assay type: cell-based
# PROTOCOL_CONDITIONS: Homo sapiens, U2OS; Table 10; assay of Biological Example 5 (NRF2); read-out: EC50
Counter-ions that a name gives are not always drawn.
Overview of recorded pEC50 for various compounds
As a rule, pEC50 stands for the negative log10 of the concentration, concentration in M.

# example entries with known answers
COC(=O)/C=C/C(=O)OC [dimethyl fumarate, reference compound] = 5.25
C=C(CC(=O)OC)C(=O)OC [dimethyl itaconate, reference compound] = 4.67
C=C(CC(=O)O[C@H](C)CCCCCC)C(=O)O [Intermediate 8] = 4.69

Query block: Identify measured pEC50 associated with C=C(CC(=O)O[C@H](C)CCCCCC)C(=O)OCC(=O)O
Result block: 5.05

---

# TEST_SUMMARY: Mouse pharmacokinetic study, intravenous dosing
# Format: in vivo
# PROTOCOL_CONDITIONS: male, C57BL/6, mouse, iv; plasma, 10 mg/kg i.v., time 0.5 h; read-out: Parent compound concentration following intravenous administration
RECORDED_METRIC: concentration at 0.5 h (ng/mL)
Give the number; ng/mL is assumed, so skip it.

Please review the following examples before continuing.
C=C(CC(=O)O[C@@H](C)CCCCCC)C(=O)OCCc1nnn[nH]1 = 96
C=C(CC(=O)OC(C)(C)CCCCCC)C(=O)OCC(=O)O = 2910
C=C(CC(=O)O[C@@H](C)CCCCCC)C(=O)OCC(=O)O = 2300
C=C(CC(=O)O[C@H](C)CCCCCC)C(=O)OCCC(=O)O = 6250
C=C(CC(=O)OC1CCCCCCC1)C(=O)OC(C)c1nnn[nH]1 (stereo not shown) = 315

Query block: Note down concentration at 0.5 h recorded for C=C(CC(=O)OCCCCCC)C(=O)OCC(=O)O
Result block: 550

Query block: Please give the documented concentration at 0.5 h of C=C(CC(=O)OC1CCCCC1)C(=O)OCc1nnn[nH]1
Result block: 346

Query block: Find the measured concentration at 0.5 h of C=C(CC(=O)OC1C(C)(C)CC1(C)C)C(=O)OCC(=O)O and report it.
Result block: 516

Query block: Using the record for C=C(CC(=O)OC12CC3CC(CC(C3)C1)C2)C(=O)OCC(=O)O , state its measured concentration at 0.5 h.
Result block: 1210

Query block: Given the molecule C=C(CC(=O)O[C@H]1C[C@H]2CC[C@]1(C)C2(C)C)C(=O)OCC(=O)O , write its reported concentration at 0.5 h.
Result block: 456

Query block: Determine from records and report concentration at 0.5 h for C=C(CC(=O)OC1CCCCCCC1)C(=O)OCC(=O)O
Result block: 1600

Query block: Fill in concentration at 0.5 h for record C=C(CC(=O)OC1CCCCCCC1)C(=O)OCc1nnn[nH]1
Result block: 4300

Query block: Return the recorded concentration at 0.5 h value; entry: C=C(CC(=O)O[C@@H](CC)CCCCC)C(=O)OCC(=O)O
Result block: 1660

Query block: Indicate the recorded concentration at 0.5 h value for this molecule: C=C(CC(=O)OC(C)(C)CCCCC)C(=O)OCC(=O)O
Result block: 1450

Query block: Indicate its recorded concentration at 0.5 h; the molecule in question is C=C(CC(=O)O[C@@H](CCCCCC)C(F)(F)F)C(=O)OCC(=O)O
Result block: 2890

Query block: Give reported concentration at 0.5 h value for C=C(CC(=O)OCCCCCC)C(=O)OCC(=O)NS(=O)(=O)N(C)C
Result block: 2.4

Query block: Give a short answer stating reported concentration at 0.5 h for C=C(CC(=O)O[C@H](C)CCCCCC)C(=O)OCC(=O)O .
Result block: 23500

Query block: Let me know recorded concentration at 0.5 h for C=C(CC(=O)OC(CCCC)CCCC)C(=O)OCC(=O)O , thanks.
Result block: 1190

---

# TEST_SUMMARY: Mouse pharmacokinetic study, oral administration
# Assay type: in vivo
# PROTOCOL_CONDITIONS: male, C57BL/6, po; mouse plasma, Example 112 dosed orally at 100 mg/kg (Intermediate 8 = metabolite), time 2 h; read-out: Example 112 and Intermediate 8 concentrations following oral administration
Below, each entry is listed with its recorded concentration at 2 h.
Numeric answer only, unit ng/mL assumed.

C=C(CC(=O)O[C@H](C)CCCCCC)C(=O)O [Intermediate 8] = 2160

// next item, concentration at 2 h requested
Query block: Annotate the molecule C=C(CC(=O)O[C@H](C)CCCCCC)C(=O)OCC(=O)O with its measured concentration at 2 h.
Result block: 14000

---

# System: IL-1β cytokine output from THP-1s
# TEST_SUMMARY: THP-1 AlphaLISA IL-1β cytokine assay
# Format: cell-based, human
# PROTOCOL_CONDITIONS: Homo sapiens, THP-1, PMA-differentiated THP-1 cells, LPS 24 hr then Nigericin 1 hour; read-out: IL-1β (IC50)
pIC50: −log10 of the molar value.
Response key: t means pIC50 >= 5; f means pIC50 < 5.

C=C(CC(=O)OC(C)(C)CCCCC)C(=O)OCC(=O)O [Example 193] = f
C=C(CC(=O)OCCCCCCCC)C(=O)OC1CS(=O)(=O)C1 [Example 47] = t
C=C(CC(=O)O[C@H](C)CCCCCC)C(=O)OCC(=O)O [Example 112] = f
C=C(CC(=O)O[C@@H](C)CCCCCC)C(=O)OCC(=O)O [Example 89] = f

Query block: Is pIC50 for C=C(CC(=O)OC)C(=O)OC1COC1 [Example 15] at or above 5?
Result block: f

Query block: Please check the record C=C(CC(=O)O[C@H](C)CCCCCC)C(=O)OC1CCOCC1 [Example 73] and state if its pIC50 is at or above 5.
Result block: f

Query block: State whether the measured pIC50 reaches 5, counting equality as reaching it, for C=C(CC(=O)OCCCOc1ccccc1)C(=O)OCCC(=O)O [Example 86]
Result block: f

---

Each record here notes measured IC50.
# System: IL-1β cytokine output from THP-1s
# TEST_SUMMARY: THP-1 AlphaLISA IL-1β cytokine assay
# Format: cell-based, human
# PROTOCOL_CONDITIONS: Homo sapiens, THP-1, PMA-differentiated THP-1 cells, LPS 24 hr then Nigericin 1 hour; read-out: IL-1β (IC50)
Field format: number, assumed µM, no unit text.

Below: 4 compounds and their reported IC50.
C=C(CC(=O)OC1C(C)(C)CC1(C)C)C(=O)OCCC(=O)O = 100
C=C(CC(=O)OC1CCCCC1)C(=O)OCCC(=O)O = 28.1
C=C(CC(=O)OCCCCCCCC)C(=O)OCCS(C)(=O)=O = 5
C=C(CC(=O)OC1CCCCCC1)C(=O)OCc1nn[nH]n1 = 14.7

In the following, a different compound is considered.
Query block: State its IC50: C=C(CC(=O)OC1CCCCCCC1)C(=O)OC(C)c1nnn[nH]1 (centres unmarked)
Result block: 14.8

---

# TEST_SUMMARY: Mouse pharmacokinetic study, intravenous dosing
# Assay type: in vivo
# PROTOCOL_CONDITIONS: male, C57BL/6, mouse, iv; plasma, 10 mg/kg i.v., time 0.05 h; read-out: Parent compound concentration following intravenous administration
RECORDED_METRIC: concentration at 0.05 h (ng/mL)
Quick note: give the figure in ng/mL, leave out the unit.

Example cases with answers are listed next.
C=C(CC(=O)O[C@H]1C[C@H]2CC[C@]1(C)C2(C)C)C(=O)OCC(=O)O = 17900
C=C(CC(=O)OCCCCCC)C(=O)OCC(=O)NS(=O)(=O)N(C)C = 3050
C=C(CC(=O)OC12CC3CC(CC(C3)C1)C2)C(=O)OCC(=O)O = 23700
C=C(CC(=O)O[C@@H](C)CCCCCC)C(=O)OCc1nn[nH]n1 = 6690

--- query ---
Query block: Determine its reported concentration at 0.05 h: C=C(CC(=O)O[C@H](C)CCCCCC)C(=O)OCCC(=O)O
Result block: 42500

---

# TEST_SUMMARY: Mouse pharmacokinetic study, intravenous dosing
# Format: in vivo
# PROTOCOL_CONDITIONS: male, C57BL/6, mouse, iv; plasma, 10 mg/kg i.v., time 0.05 h; read-out: Parent compound concentration following intravenous administration
RECORDED_METRIC: concentration at 0.05 h (µg/mL)
Entry rule: numbers only, all in µg/mL.

C=C(CC(=O)O[C@@H](C)CCCCCC)C(=O)OCC(=O)O = 27.8
C=C(CC(=O)OC1CCCCCCC1)C(=O)OC(C)c1nnn[nH]1 (centres unmarked) = 11

Query block: Output concentration at 0.05 h of C=C(CC(=O)O[C@H](C)CCCCCC)C(=O)OCc1nn[nH]n1
Result block: 8.89

Query block: // Input: C=C(CC(=O)O[C@@H](CC)CCCCC)C(=O)OCC(=O)O . Output its concentration at 0.05 h only.
Result block: 37.2

Query block: Return reported concentration at 0.05 h. Input molecule: C=C(CC(=O)OC1C(C)(C)CC1(C)C)C(=O)OCC(=O)O
Result block: 15.6

Query block: Provide concentration at 0.05 h value for the following molecule: C=C(CC(=O)OC(C)(C)CCCCCC)C(=O)OCC(=O)O
Result block: 36.6

Query block: Report concentration at 0.05 h for C=C(CC(=O)O[C@@H](C)CCCCCC)C(=O)OCCC(=O)O
Result block: 5.58

Query block: Report concentration at 0.05 h for C=C(CC(=O)O[C@@H](CCCCCC)C(F)(F)F)C(=O)OCC(=O)O
Result block: 40.8

Query block: State its concentration at 0.05 h for this molecule: C=C(CC(=O)OC1CC2(CCC2)C1)C(=O)OCC(=O)O
Result block: 15.1

Query block: Output measured concentration at 0.05 h for this item: C=C(CC(=O)OC1CCCCCCC1)C(=O)OCC(=O)O
Result block: 19.2

Query block: Specify measured concentration at 0.05 h for C=C(CC(=O)OC(CCCC)CCCC)C(=O)OCC(=O)O .
Result block: 27.5

Query block: Identify measured concentration at 0.05 h corresponding to C=C(CC(=O)OC)C(=O)OC [dimethyl itaconate, reference compound]
Result block: 0.874

Query block: Report concentration at 0.05 h for C=C(CC(=O)O[C@H](CC)CCCCC)C(=O)OCC(=O)O
Result block: 33.4

Query block: Provide one value: measured concentration at 0.05 h of C=C(CC(=O)O[C@H](C)CCCCCC)C(=O)OCC(=O)O
Result block: 63.5

Query block: Look up and report measured concentration at 0.05 h for this entry: C=C(CC(=O)OCCCCCC)C(=O)OCC(=O)O
Result block: 18

Query block: Recall and state the measured concentration at 0.05 h for C=C(CC(=O)OC1CCCCCCC1)C(=O)OCc1nnn[nH]1 .
Result block: 31.6

Query block: Supply concentration at 0.05 h value. Item: C=C(CC(=O)O[C@@H](C)CCCCCC)C(=O)OCCc1nnn[nH]1
Result block: 2.92
